These measurements were taken from patent US20170267679A1.

Biological target: p97 (Homo sapiens)
Sequence (P55072 whole entry): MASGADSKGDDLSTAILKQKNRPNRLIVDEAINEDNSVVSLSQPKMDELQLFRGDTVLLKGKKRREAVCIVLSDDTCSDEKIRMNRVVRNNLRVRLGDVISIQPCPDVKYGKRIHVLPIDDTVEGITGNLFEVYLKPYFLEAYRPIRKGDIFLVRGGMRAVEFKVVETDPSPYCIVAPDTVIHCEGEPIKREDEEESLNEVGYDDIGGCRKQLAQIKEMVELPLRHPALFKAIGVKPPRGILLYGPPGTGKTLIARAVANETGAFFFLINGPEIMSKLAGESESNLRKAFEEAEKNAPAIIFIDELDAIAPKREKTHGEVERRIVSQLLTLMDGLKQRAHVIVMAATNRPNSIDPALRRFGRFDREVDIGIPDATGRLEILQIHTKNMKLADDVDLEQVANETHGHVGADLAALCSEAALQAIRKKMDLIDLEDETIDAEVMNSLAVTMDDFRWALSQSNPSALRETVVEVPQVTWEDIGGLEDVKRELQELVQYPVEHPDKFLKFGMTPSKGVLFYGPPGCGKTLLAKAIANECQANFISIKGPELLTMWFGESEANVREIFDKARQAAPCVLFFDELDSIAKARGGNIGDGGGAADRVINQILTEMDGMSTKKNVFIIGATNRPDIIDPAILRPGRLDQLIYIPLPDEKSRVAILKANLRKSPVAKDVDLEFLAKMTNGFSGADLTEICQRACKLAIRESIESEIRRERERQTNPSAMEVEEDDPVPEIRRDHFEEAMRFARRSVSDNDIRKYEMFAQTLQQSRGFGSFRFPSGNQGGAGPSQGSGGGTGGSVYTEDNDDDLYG
Quantity measured: pIC50
Reminder that pIC50 is minus the log10 of a molar concentration.

In plain terms, Cc1cc2c(C(N)=O)cccc2n1-c1nc2c(c(NCc3ccccc3)n1)CN1CCCCC1C2 (stereo not shown) has a documented pIC50 of 7.60
